Cited source for all entries: paper PMC10814725

assay.method.text: in vitro
Type: cell-based
particulars: mouse
Lab note: compare viability at 20 µM with 80%, writing 1 if less and -1 if equal or more.

See these solved cases before continuing.
- compound: "C[C@]12C3=CC[C@@H](c4ccoc4)[C@]3(C)CC[C@@H]1[C@@]1(C)C(=O)C=C[C@@]3(C)CO[C@@H]([C@H]2O)[C@H]13 [Compound 12, ceramicine B]"
  label: -1
- compound: "CC(=O)O[C@H]1[C@@H](OC(C)=O)[C@@]2(C)C3=CC[C@@H](c4ccoc4)[C@]3(C)CC[C@@H]2[C@@]2(C)C=CC(=O)C(C)(C)[C@H]12 [Compound 5, dysobinin]"
  label: 1
- compound: "CC(=O)O[C@@H]1C[C@H]2C(C)(C)C(=O)C=C[C@]2(C)[C@H]2CC[C@]3(C)C(=CC[C@H]3C3CCOC3=O)[C@@]21C (stereo partly drawn) [Compound 15, pentandricine B]"
  label: -1

## Input Decide: viability at 20 µM of CC(=O)O[C@H]1[C@@H](O)[C@@]2(C)C3=CC[C@@H](c4ccoc4)[C@]3(C)CC[C@@H]2[C@@]2(C)C=CC(=O)C(C)(C)[C@H]12 [Compound 3, 6α-O-acetyl-7-deacetylnimocinol] strictly below 80%?
## Output 1

## Input Decide: viability at 20 µM of CC(=O)O[C@H]1[C@@H](OC(C)=O)[C@]2(C)[C@H](CC[C@@]3(C)[C@H](c4ccoc4)C[C@H]4O[C@@]423)[C@@]2(C)C=CC(=O)C(C)(C)[C@H]12 [Compound 4, 6α-(acetoxy)-14β,15β-epoxyazadirone] strictly below 80%?
## Output -1

## Input Decide: viability at 20 µM of CC(=O)O[C@@H]1C[C@H]2C(C)(C)C(=O)C=C[C@]2(C)[C@H]2CC[C@@]3(C)[C@H](c4ccoc4)C[C@H]4O[C@]43[C@@]21C [Compound 13, trichilenone acetate] strictly below 80%?
## Output -1

## Input Decide: viability at 20 µM of CC(=O)O[C@H]1[C@@H](OC(C)=O)[C@@]2(C)C3C(=O)C[C@@H](c4ccoc4)[C@]3(C)CC[C@@H]2[C@@]2(C)C=CC(=O)C(C)(C)[C@H]12 (stereo partly drawn) [Compound 7, toonaciliatone F] strictly below 80%?
## Output -1

## Input Decide: viability at 20 µM of CC1(C)C(=O)C=C[C@]2(C)[C@H]3CC[C@]4(C)C(C(=O)C[C@H]4c4ccoc4)[C@]3(C)[C@H](O)C[C@@H]12 (stereo partly drawn) [Compound 1, 7α-hydroxyneotrichilenone] strictly below 80%?
## Output -1

## Input Decide: viability at 20 µM of C[C@]12C3=CC[C@@H](C4=CC(O)OC4=O)[C@]3(C)CC[C@@H]1[C@@]1(C)C(=O)C=C[C@@]3(C)CO[C@@H]([C@H]2O)[C@H]13 (stereo partly drawn) [Compound 14, pentandricine] strictly below 80%?
## Output -1

## Input Decide: viability at 20 µM of CC1(C)C(=O)C=C[C@]2(C)[C@H]3CC[C@]4(C)C(=CC[C@H]4C4CCOC4=O)[C@]3(C)[C@H](O)C[C@@H]12 (stereo partly drawn) [Compound 16, pentandricine C] strictly below 80%?
## Output -1

---

assay.method.text: Cell viability by CCK-8, HEK-Blue hTLR4 cells
Format: cell-based
particulars: human, Viability Cell (%) HEK-Blue hTLR4 Without LPS
viability at 18 h, 20 µM values for the molecules below.
Write it as a number; the unit % goes unstated.

- molecule: "CC(=O)O[C@H]1[C@@H](OC(C)=O)[C@@]2(C)C3=CC[C@@H](c4ccoc4)[C@]3(C)CC[C@@H]2[C@@]2(C)C=CC(=O)C(C)(C)[C@H]12 [Compound 5, dysobinin]"
  unit.name: "%"
  val: 43.3

Consider the additional molecule presented here.
## Input # viability at 18 h, 20 µM lookup, item CC(=O)O[C@H]1[C@@H](OC(C)=O)[C@@]2(C)C3C(=O)C[C@@H](c4ccoc4)[C@]3(C)CC[C@@H]2[C@@]2(C)C=CC(=O)C(C)(C)[C@H]12 (stereo partly drawn) [Compound 7, toonaciliatone F]
## Output 92.9
